- Test system: Plasmodium falciparum
- measurement-protocol: GSK_TCMDC: Inhibition of Plasmodium falciparum 3D7 in whole red blood cells, using parasite LDH activity as an index of growth. Test compounds present at 2uM
- Type: functional
Consider the following compounds and their measured Inhibition readings.
Report the figure in % without appending any unit label.

N#CCCN1CCN(Cc2ccc(-c3cccc(-c4nc5cc(F)ccc5[nH]4)c3)cc2)CC1.O=C(O)C(F)(F)F    91

Looking for the measured Inhibition of CN(C(=O)C1(c2ccc(Cl)cc2)CC1)C1CCN(CCCCCNC(=O)/C=C/c2ccc(Cl)c(Cl)c2)CC1 , can you help? 88

I would be grateful if you could share the reported Inhibition for CC(=O)Nc1ccc(S(=O)(=O)Nc2ccc(Nc3nc(C)cc(N(C)C)n3)cc2)cc1 . 100

Entry under review: Cc1noc(NC(=O)c2sc3ccccc3c2O)c1C . Reported Inhibition? 90

Inhibition for O=C(C=Cc1ccccc1)Nc1ccc(C#CC=Cc2ccc(NC(=O)C=Cc3ccccc3)cc2)cc1 ? 100

###

- Test system: Plasmodium falciparum
- measurement-protocol: GSK_TCMDC: Inhibition of Plasmodium falciparum Dd2 in whole red blood cells, using parasite LDH activity as an index of growth. Test compounds present at 2uM
- Type: functional
reported-endpoint: Inhibition (%)
Answer with a number only, understood to be in %.

The following compounds have reported results that may help.
Cl.O=c1cc(NCCCNCc2scc3c(Cl)cc(C(F)(F)F)nc23)[nH]c2ccccc12    21
CC(C)NCc1ccc(-c2ccc(NC(=O)c3cccc(Cl)c3)cc2)cc1.O=C(O)C(F)(F)F    14
O=C(NCCNc1ccnc2cc(Cl)ccc12)c1ccccc1F    98
O=C(Nc1cccc(CN2CCCN(Cc3ccccc3)CC2)c1)c1cc2ccccc2s1.O=C(O)C(F)(F)F    28
COc1cc(Cc2cnc(N)nc2N)c2c(c1OC)OC(C)C=C2 (stereo not drawn)    1
O=C(NCc1cccc(C(F)(F)F)c1)C1CCCN(C(=O)c2ccc(O)c(-c3ccc(Cl)c(Cl)c3)c2)C1 (stereo not drawn)    32
COc1cc2c(cc1C(F)(F)F)N(C(=O)Nc1cc(OC(F)(F)F)cc(-c3cccnc3)c1)CC2    49
Oc1ccc2[nH]cc(C3CCN(CCCNCc4ccc(-c5ccccc5)cc4)CC3)c2c1    0
CC(C)CNCc1cccc(-c2cccc(CNC3CCN(Cc4ccccc4)CC3)c2)c1.O=C(O)C(F)(F)F    99
O=C(Nc1ccc(Cl)c(C(F)(F)F)c1)Nc1ccc(Cl)c(C(F)(F)F)c1    96

Write down the reported Inhibition of COc1cc(Nc2ccnc3cc(-c4nccs4)ccc23)ccc1OCCCc1nc2ccccc2[nH]1.Cl , test system: Plasmodium falciparum. 68

Enter reported Inhibition observed with Plasmodium falciparum for O=C(Nc1ccc(-c2ccccc2)cc1)Nc1ccc2c(c1)CCNCC2.O=C(O)C(F)(F)F 48

Inhibition of CC(C)[C@H](NC(=O)c1ccc(O)c(-c2ccc(Cl)c(Cl)c2)c1)C(=O)NC1CCCCCC1 on Plasmodium falciparum? 99

###

Form field: Inhibition (one value per entry).
- System: Plasmodium falciparum
- measurement-protocol: GSK_TCMDC: Inhibition of Plasmodium falciparum Dd2 in whole red blood cells, using parasite LDH activity as an index of growth. Test compounds present at 2uM
- Assay type: functional
The reply should be a number in %, with the unit left off.

Which Inhibition value is on record for COc1ccc2nccc(N(C)CC3(O)CCC(NCc4ccc5c(n4)NC(=O)CS5)CC3)c2n1.Cl (centres undefined) ? 23

May I ask what Inhibition has been recorded for O=C(Nc1ccc(C(F)(F)F)cc1)NC1CCN(CCCCCNC(=O)C2CC2c2ccc(Cl)c(Cl)c2)CC1 (centres undefined) ? 45

Which Inhibition is listed for Cc1c(-c2cccc(C(C)(C)NC3CCN(Cc4ccccc4)CC3)c2)cnc(N)c1C.Cl ? 39

Any idea what its Inhibition is? The compound is CCN1CCN(c2cc(C)c3cc(NC(=O)c4cccc(C(F)(F)F)c4)ccc3n2)CC1 85

Inhibition lookup needed for O=C(/C=C/c1ccc(Cl)c(Cl)c1)NCCCCCN1CCC(c2n[nH]c(-c3ccccc3)c2Br)CC1 , thanks. 23

###

Inhibition values for the molecules below.
- System: HepG2
- measurement-protocol: GSK_TCMDC: Percent inhibition of human HepG2 cell line. Test compounds present at 10uM.
- Format: functional
Field format: number, assumed %, no unit text.

Here is how some molecules turned out for Inhibition.
C=CCn1c(Sc2ccc(C#N)c([N+](=O)[O-])c2)nnc1-c1cc(OC)cc(OC)c1    12
Cc1cccc2nc(-c3ccc(-c4ccc(CN5CCCC(O)C5)cc4)cc3)[nH]c12.O=C(O)C(F)(F)F (stereo not given)    41
Cc1ccc(NC(=O)Nc2ccccc2)cc1-c1ccc(C(=O)Nc2ccncc2)cc1    67
CCCC(CNCc1cccc(OC(F)(F)C(F)F)c1)CNc1cc(=O)c2ccccc2[nH]1 (stereo not given)    0

Okay, now this molecule:
What value of measured Inhibition is listed for Cc1noc(-c2ccc3c(c2)CCN(CCC2CCC(NC(=O)c4cc5ccccc5[nH]4)CC2)CC3)n1.Cl (stereo not given) ? 21

###

- System: Plasmodium falciparum
- measurement-protocol: GSK_TCMDC: Inhibition of Plasmodium falciparum Dd2 in whole red blood cells, using parasite LDH activity as an index of growth. Test compounds present at 2uM
- Type: functional
Label True when Inhibition < 80%; otherwise False.

O=c1c2ccccc2[nH]c2nc3ccccc3c(Nc3ccccc3)c12    False

Record O=C(c1c(-c2[nH]c3ccccc3c2C(=O)C(F)(F)F)[nH]c2ccccc12)C(F)(F)F : is its Inhibition strictly below 80%? False

Criterion: Inhibition strictly below 80%. Is it met by COc1ccc(NC(=O)NC2CCN(c3ccnc4ccccc34)C2)cc1.O=C(O)C(F)(F)F (stereo not given) ? True

is_below(Inhibition, 80%) for COc1nc2c(CCN3CCC(NCc4ccc5c(n4)NC(=O)CO5)CC3)c(Cl)cnc2cc1F.Cl ? True

###

- Test system: HepG2
- measurement-protocol: GSK_TCMDC: Percent inhibition of human HepG2 cell line. Test compounds present at 10uM.
- Type: functional
Exam item: assign 1 to entries whose Inhibition is below 40% and 0 to entries at or above 40%. Note that a value of exactly 40% receives 0.

Would you please look over these solved cases?
COc1cc2nc(NCCn3nc(C)cc3C)nc(NCCc3ccccc3)c2cc1OC    1
CNS(=O)(=O)CCNCc1ccc(-c2ccc3ncnc(Nc4ccc(OCc5ccccc5)cc4)c3c2)o1    1
Cc1cc(Nc2ccc(Oc3ccc(Cl)cc3)cc2)nc(N)n1    0

Here's an entry: c1cncc(-c2cccc(CNc3nccc(Nc4ccc(OCCN5CCOCC5)cc4)n3)c2)c1 . Is its Inhibition below 40%? 1

Strictly below 40% in Inhibition? COCCN1CCN(Cc2ccc(-c3cccc(-c4nc5ccccc5[nH]4)c3)cc2)CC1.O=C(O)C(F)(F)F 1

Please determine if C[C@H]1CN(Cc2cccc(-c3cc(CNC(=O)c4cccc(CN5CCN(CCOc6ccccc6)CC5)c4)ccc3F)c2)CCN1.O=C(O)C(F)(F)F is below 40% in terms of Inhibition. 0

Hello, I'm reviewing records and need to know if Inhibition of O=C(NC1CCCC1)c1ccc(N2CCC(NCc3cc4cc(Cl)ccc4[nH]3)CC2)cc1 is below 40%. Could you check? 1

Problem: For the compound CC1(C)N=C(N)N=C(N)N1c1ccc(Br)cc1.Cl , is Inhibition under 40%? 0

###

- Test system: HepG2
- measurement-protocol: GSK_TCMDC: Percent inhibition of human HepG2 cell line. Test compounds present at 10uM.
- Format: functional
Catalogue of Inhibition values
Give the value in % but do not write % after it.

// solved cases for Inhibition follow
Brc1cc(CNCCCNc2nc3ccccc3[nH]2)sc1Br.Cl    10
O=C(NCCCN1CCC(N2CCCCC2)CC1)C1=Cc2cc(Br)ccc2OC1    26
CNC(=N)c1ccc(NC(=O)Nc2ccc(C(=N)NC)cc2)cc1.Cl    0
Cc1cccc(N2C(N)=NC(N)=NC2(C)C)c1C.Cl    0

Any idea what Inhibition was measured for CC1CC(C)CN(CC(O)CNC(=O)Nc2ccc(Br)cc2)C1.O=C(O)C(F)(F)F (stereo not given) ? 13

Returns the measured Inhibition for the input compound. Input: O=C(c1cncc(-c2ccccc2)c1)N(Cc1cncn1Cc1ccccc1F)CC1CC1 0

Report Inhibition for CCOC(=O)c1cccc(NC(=O)Nc2cc(C)nc3ccccc23)c1 please. 14

Request the reported Inhibition associated with CC(CN(C)C)C(=O)Nc1cccc(-c2cccc(-c3nc4ccccc4[nH]3)c2)c1 (stereo not given) 42

Recorded Inhibition of Cn1c(N=C2NC3(c4ccccn4)NC(=Nc4nc5ccccc5n4C)NC3(c3ccccn3)N2)nc2ccccc21.O=C(O)C(F)(F)F (stereo not given) , please. 12

Could you share which Inhibition value was measured for O=C(CCc1c[nH]cn1)Nc1cccc(-c2ccc(-c3nc4ccccc4[nH]3)cc2)c1 ? 24

# credit: ChEMBL document CHEMBL1157539
